The reported numbers originate from the NIST ThermoML archive (doi:10.1016/j.jct.2013.11.026).

- Assay context: 298.15 K; 101.8 kPa; Liquid; Falling or rolling sphere viscometry
# viscosity per record follows
# output: bare number, implied unit mPa·s

Here's what some known entries look like.
Q: Bench note: what viscosity did CC1=CCC(C(C)C)=CC1 [1-methyl-4-(1-methylethyl)-1,4-cyclohexadiene] show?
A: 1.144

Q: Bench note: what viscosity did CC(C)=CCCC(C)=CC=O [3,7-dimethyl-2,6-octadienal (cis+trans)] show?
A: 2.019

Q: Bench note: what viscosity did C=CC(C)(CCC=C(C)C)OC(C)=O (stereo not drawn) [linalool acetate] show?
A: 2.291

Q: Bench note: what viscosity did CCO [ethanol] show?
A: 1.125

Q: Bench note: what viscosity did C=CC(C)(O)CCC=C(C)C (stereo not drawn) [3,7-dimethyl-1,6-octadien-3-ol] show?
A: 4.349

Q: Bench note: what viscosity did C=C(C)[C@H]1CC=C(C)CC1 [(R)-1-methyl-4-(1-methylethenyl)cyclohexene] show?
A: 0.8599

Q: Bench note: what viscosity did C=C1CC[C@H]2C[C@@H]1C2(C)C [(1S,5S)-6,6-dimethyl-2-methylenebicyclo[3.1.1]heptane] show?
A: 1.616

Now consider the entry below.
Q: Bench note: what viscosity did C=C(C)[C@@H]1CC=C(C)C(=O)C1 [l-carvone] show?
A: 2.456
